Tested on: Wolbachia pipientis
Experiment: Anti-Wolbachia Cell-Based Screen
Assay type: functional
Parameters: scale not given: in the data most compounds retested in dose-response had high values
Settings: 5 µM
About 13,000 (27%) of roughly 48,000 compounds showed an effect of 50% or more. The list shows a part of the results.
For each record, check the reported Percent Effect: if it is below 90% write met, else write not met.

[
  {
    "Compound": "CCc1nccn1C1CCCN(C(=O)c2ccc(OC)c(OC)c2)C1 (stereo not given)",
    "Classification": "not met"
  },
  {
    "Compound": "Cc1nccn1C1CCCN(C(=O)c2ccc3c(c2)nnn3C)C1 (stereo not given)",
    "Classification": "met"
  },
  {
    "Compound": "Cn1c(=O)[nH]c(=O)n2c(CC(=O)NCc3ccccc3)cnc12",
    "Classification": "not met"
  },
  {
    "Compound": "CCc1nccn1C1CCCN(C(=O)c2ccc3c(c2)nnn3C)C1 (stereo not given)",
    "Classification": "not met"
  }
]

Now for another entry.
API: query returns whether the compound falls strictly under 90% in Percent Effect. Query: CCc1nccn1C1CCCN(C(=O)c2ccc3[nH]nnc3c2)C1 (stereo not given) met

----------
System: Wolbachia pipientis
Test: Anti-Wolbachia Cell-Based Screen
Type: functional
Design: scale not given: in the data most compounds retested in dose-response had high values
Settings: 5 µM
Out of some 48,000 compounds screened, about 13,000 (27%) showed an effect of 50% or more. Some of the results follow.
Recorded Metric: Percent Effect (%)
Numbers only; they are read as %.

Answered examples (5):
[
  {
    "Compound": "COc1cc(C)cc(C(C(=O)O)N(C)CCN2CCCC2)c1OC (stereo unspecified)",
    "System Tested": "Wolbachia pipientis",
    "Reported Result": -1.945
  },
  {
    "Compound": "CN1CCC(CNC(=O)Cc2ccc(N(C)C)cc2)CC1",
    "System Tested": "Wolbachia pipientis",
    "Reported Result": -0.2873
  },
  {
    "Compound": "Cc1noc2nc(C3CCCN(Cc4ccncc4)C3)cc(C(F)F)c12 (stereo unspecified)",
    "System Tested": "Wolbachia pipientis",
    "Reported Result": 102.2
  },
  {
    "Compound": "O=C(NCCCC(=O)N1Cc2ccccc2C1)NCc1ccsc1",
    "System Tested": "Wolbachia pipientis",
    "Reported Result": 1.068
  },
  {
    "Compound": "COc1cc2c(cc1OC)CN(C(=O)Cn1nc(C)cc1C)CC2",
    "System Tested": "Wolbachia pipientis",
    "Reported Result": 1.135
  }
]

Kindly review the next compound as well.
# input compound: Cc1noc2nc(C3CCN(Cc4cccnc4)CC3)cc(C(F)F)c12.Cl ; wanted: its Percent Effect -9.901

----------
System: Wolbachia pipientis
Assay: Anti-Wolbachia Cell-Based Screen
Assay type: functional
Parameters: scale not given: in the data most compounds retested in dose-response had high values
Conditions: 5 µM
Out of some 48,000 compounds screened, about 13,000 (27%) showed an effect of 50% or more. This is one part of the list.
# Percent Effect annotations
Numbers only; they are read as %.

Answered examples (4):
[
  {
    "Molecule": "CC(C)c1nc2oc(C(=O)N3CCOCC3)c(N)c2c2c1CCCC2",
    "Recorded Metric": "Percent Effect",
    "Measurement Unit": "%",
    "Reported Result": 100.5
  },
  {
    "Molecule": "CC(C)c1nnc(N2C[C@@H](CN(C)CCO)[C@@H](CO)C2)s1",
    "Recorded Metric": "Percent Effect",
    "Measurement Unit": "%",
    "Reported Result": -2.617
  },
  {
    "Molecule": "Cn1ccnc1C1c2nc[nH]c2CCN1Cc1cccnc1 (centres undefined)",
    "Recorded Metric": "Percent Effect",
    "Measurement Unit": "%",
    "Reported Result": 3.917
  },
  {
    "Molecule": "CCN(CC)C1CCN(C(=O)Nc2cc(F)c(OC)c(F)c2)C1 (centres undefined)",
    "Recorded Metric": "Percent Effect",
    "Measurement Unit": "%",
    "Reported Result": -0.1207
  }
]

Wolbachia pipientis / Percent Effect / COCCn1ccnc1CN1CCc2[nH]cnc2C1c1cnn(C)c1C (centres undefined) : value? 99.98

Wolbachia pipientis / Percent Effect / CCC(C)N1CCc2c(C(=O)N3CCOCC3)n[nH]c2C1 (centres undefined) : value? -26.93

Wolbachia pipientis / Percent Effect / c1ccc(COCCN2CCc3[nH]cnc3C2c2ccco2)cc1 (centres undefined) : value? -0.996

----------
System: Wolbachia pipientis
Test: Anti-Wolbachia Cell-Based Screen
Type: functional
Design: scale not given: in the data most compounds retested in dose-response had high values
Details: 5 µM
About 13,000 (27%) of roughly 48,000 compounds showed an effect of 50% or more. The list shows a part of the results.
# Percent Effect annotations
Numbers only; they are read as %.

[
  {
    "Compound": "CCc1n[nH]c(C2CN(Cc3ncc(CC)o3)CCO2)n1 (centres undefined)",
    "Measurement Unit": "%",
    "Percent Effect": -12.36
  }
]

# input compound: CC(=O)c1ccc(C(=O)N2C[C@@H]3CC[C@H](C2)N(Cc2ccccc2)C3)s1 ; wanted: its Percent Effect -1.466

# input compound: CCn1cnc2c(c(Br)nn2C)c1=O ; wanted: its Percent Effect -4.609

# input compound: CCc1ccc(NS(=O)(=O)CC2=NC(=O)n3cccc3C2=O)cc1 ; wanted: its Percent Effect 11.57

# input compound: Cc1cc(CNC(=O)c2cnoc2C)c(C)o1 ; wanted: its Percent Effect 146.4

# input compound: COCCN1CCN(CC(=O)N(C)Cc2ccc(F)cc2)CC1C (centres undefined) ; wanted: its Percent Effect 0.8723

# input compound: Cc1nn(C)c(C)c1CN1CCCC(c2ccc(C(=O)O)cc2)C1 (centres undefined) ; wanted: its Percent Effect 16.04

# input compound: COCCNC(=O)c1cc(F)ccc1NS(C)(=O)=O ; wanted: its Percent Effect -6.492

# input compound: Fc1cnc(N2CCN(Cc3ccc(-c4cc[nH]n4)o3)CC2)nc1 ; wanted: its Percent Effect 10.27

# input compound: C=Cc1ccc(C(=O)N2CCCC(Nc3ccc(F)c(F)c3)C2)cc1 (centres undefined) ; wanted: its Percent Effect -24.37

# input compound: CCc1noc(C)c1C(=O)NCCCC(CC)(CC)C1OCCO1 ; wanted: its Percent Effect -8.501

# input compound: O=C(c1cnc(O)cn1)N1C[C@@H]2CC[C@H](C1)N(Cc1ccccc1)C2 ; wanted: its Percent Effect 93.73

# input compound: CC(C)(C)OC(=O)Cn1cccc(S(=O)(=O)N2CCCC2)c1=O ; wanted: its Percent Effect 1.983

# input compound: Cc1c(Cl)cccc1NC(=O)CCNc1ccc(C#N)cn1 ; wanted: its Percent Effect 0.2076

# input compound: O=C(c1cccnc1)N1C[C@@H]2CC[C@H](C1)N(Cc1cccc(Cl)c1F)C2 ; wanted: its Percent Effect -33.46

# input compound: COc1ccc(F)c(-c2cc(C)nc(N)n2)c1 ; wanted: its Percent Effect -7.785

# input compound: Cn1nc2c(cc1=O)CN(Cc1coc(-c3cccs3)n1)CC2 ; wanted: its Percent Effect 1.365

# input compound: CC(=O)Nc1ncc(S(=O)(=O)N2CCOCC2)s1 ; wanted: its Percent Effect -0.8414

# input compound: O=C(c1cccnc1)N1C[C@@H]2CC[C@H](C1)N(Cc1ccc(F)cc1Cl)C2 ; wanted: its Percent Effect -16.95

# input compound: Cc1c(Cl)cccc1NC(=O)c1nc[nH]n1 ; wanted: its Percent Effect 83.83

# input compound: CC1CCN(S(=O)(=O)c2cccn(CC(=O)NC(C)(C)C)c2=O)CC1 ; wanted: its Percent Effect -3.132

----------
Tested on: Wolbachia pipientis
Assay: Anti-Wolbachia Cell-Based Screen
Format: functional
Design: scale not given: in the data most compounds retested in dose-response had high values
Conditions: 5 µM
The whole screen tested about 48,000 compounds, of which about 13,000 (27%) showed an effect of 50% or more. Some of the results follow.
For each record, check the reported Percent Effect: if it is below 90% write YES, else write NO.

[
  {
    "Molecule": "COC(=O)c1ccc(-c2noc(CN(CCO)Cc3cccs3)n2)cc1",
    "Classification": "NO"
  },
  {
    "Molecule": "Cc1oc(-c2ccco2)nc1CC(=O)NCC(C)(C)N(C)C",
    "Classification": "YES"
  },
  {
    "Molecule": "COc1ccc(S(=O)(=O)N2CCC(OCc3ccccn3)C2)cc1Br (configuration not stated)",
    "Classification": "YES"
  },
  {
    "Molecule": "CCc1nc(CN(Cc2cccs2)CC2CCCO2)no1 (configuration not stated)",
    "Classification": "YES"
  }
]

API: query returns whether the molecule falls strictly under 90% in Percent Effect. Query: OCCN(Cc1ccccc1)Cc1nc(-c2ccc3c(c2)OCO3)no1 NO

API: query returns whether the molecule falls strictly under 90% in Percent Effect. Query: CCN(Cc1noc(CC(C)C)n1)Cc1ccccc1OCC(=O)O YES

API: query returns whether the molecule falls strictly under 90% in Percent Effect. Query: Cc1ncsc1CN1CC[C@H](O)[C@@H](n2cnc3c(N)ncnc32)CC1 NO
